Experimental details: Plasma stability
Format: in vitro ADME
Design: unit not given here
Study conditions: 37° C., 2 μM substrate
Measured STA Human Plasma 37, listed per entry for reference.
Note: the reply should be a number with no unit written.

Worked examples follow.
Compound | Observed result
CC[C@H](C)OC(=O)OC[C@H]1O[C@@](C#N)(c2ccc3c(N)ncnn23)[C@H](O)[C@@H]1O [Compound 90] | 169.9
N#C[C@@]1(c2ccc3c(N)ncnn23)O[C@H](COC(=O)OC23CC(C(F)(F)F)(C2)C3)[C@@H](O)[C@H]1O [Compound 139] | 150.07
CC(C)(C)COC(=O)OC[C@H]1O[C@@](C#N)(c2ccc3c(N)ncnn23)[C@H](O)[C@@H]1O [Compound 3] | 82.745
COC(=O)OC[C@H]1O[C@@](C#N)(c2ccc3c(N)ncnn23)[C@H](OC(=O)OC)[C@@H]1OC(=O)OC [Compound 93] | 28.444
N#C[C@@]1(c2ccc3c(N)ncnn23)O[C@H](COC(=O)OCCCCCC(=O)O)[C@@H](O)[C@H]1O [Compound 140] | 1322.1
N#C[C@@]1(c2ccc3c(N)ncnn23)O[C@H](COC(=O)OC2CCCCCCC2)[C@@H](O)[C@H]1O [Compound 14] | 262.42
CC(C)(OC(=O)OC[C@H]1O[C@@](C#N)(c2ccc3c(N)ncnn23)[C@H](O)[C@@H]1O)c1ccccn1 [Compound 98] | 884.09
N#C[C@@]1(c2ccc3c(N)ncnn23)O[C@H](COC(=O)OCC2CCC2)[C@@H](O)[C@H]1O [Compound 53] | 13
CC(C)OC(=O)OC[C@H]1O[C@@](C#N)(c2ccc3c(N)ncnn23)[C@H](OC(=O)C(C)C)[C@@H]1OC(=O)C(C)C [Compound 59] | 84.318
N#C[C@@]1(c2ccc3c(N)ncnn23)O[C@H](COC(=O)OCCN2CCOCC2)[C@@H](O)[C@H]1O [Compound 92] | 139.9

Indicate its recorded STA Human Plasma 37; the compound in question is CC(C)(OC(=O)OC[C@H]1O[C@@](C#N)(c2ccc3c(N)ncnn23)[C@H](O)[C@@H]1O)c1ccncc1 [Compound 49]
1584

Indicate its recorded STA Human Plasma 37; the compound in question is CCC1O[C@H]2[C@@H](O1)[C@](C#N)(c1ccc3c(N)ncnn13)O[C@@H]2COC(=O)OC(C)C (some centres unmarked) [Compound 133]
73.357

Indicate its recorded STA Human Plasma 37; the compound in question is N#C[C@@]1(c2ccc3c(N)ncnn23)O[C@H](COC(=O)OC2CCCCC2)[C@@H](O)[C@H]1O [Compound 35]
139.6

Indicate its recorded STA Human Plasma 37; the compound in question is CC(C)OC(=O)OC[C@H]1O[C@@](C#N)(c2ccc3c(N)ncnn23)[C@H](O)[C@@H]1OC(=O)CCCCCCC(=O)O [Compound 130]
409.28

###

Measured EC50, listed per entry for reference.
Test system: Respiratory syncytial virus recombinant with luciferase (RSV-Luc5) in HEp-2 cells
Experimental details: microbe, parasite or virus in culture
Assay type: cell-based
Study conditions: human respiratory syncytial virus, HEp-2, read-out: EC50 RSVFluc-Hep2 384 V2
Give your result in nM as a bare value.

Worked examples follow.
Compound | U | EC50
N#C[C@@]1(c2ccc3c(N)ncnn23)O[C@H](COC(=O)OCC2CC2)[C@@H](O)[C@H]1O [Compound 125] | nM | 220
CC1=CCC(C(C)(C)OC(=O)OC[C@H]2O[C@@](C#N)(c3ccc4c(N)ncnn34)[C@H](O)[C@@H]2O)CC1 (stereo partly shown) [Compound 155] | nM | 1570
CC1(COC(=O)OC[C@H]2O[C@@](C#N)(c3ccc4c(N)ncnn34)[C@H](O)[C@@H]2O)CCCC1 [Compound 123] | nM | 720

Now consider the entry below.
Indicate its recorded EC50; the compound in question is CC1(C)CC(COC(=O)OC[C@H]2O[C@@](C#N)(c3ccc4c(N)ncnn34)[C@H](O)[C@@H]2O)C1 [Compound 117]
494

###

Experimental details: Stability in pH2 buffered solution
Assay type: physicochemical
Study conditions: pH2 phosphate buffer, 40° C., 24 h; Table N2
Measurement label: pH 2 Stability 24 h % AN (% AN)
Give your result in % AN as a bare value.

Worked examples follow.
Compound | Measurement label | Observed result
CC(C)OC(=O)OC[C@H]1O[C@@](C#N)(c2ccc3c(N)ncnn23)[C@H](OC(=O)OC(C)C)[C@@H]1OC(=O)OC(C)C | pH 2 Stability 24 h % AN | 100
CCCC(=O)Nc1ncnn2c([C@]3(C#N)O[C@H](COC(=O)OCC(C)C)[C@@H](O)[C@H]3O)ccc12 | pH 2 Stability 24 h % AN | 0
CCOC(=O)C(C)(C)OC(=O)OC[C@H]1O[C@@](C#N)(c2ccc3c(N)ncnn23)[C@H](O)[C@@H]1O | pH 2 Stability 24 h % AN | 98
COC(=O)[C@H]([C@@H](C)OC(=O)OC[C@H]1O[C@@](C#N)(c2ccc3c(N)ncnn23)[C@H](O)[C@@H]1O)N(C)C | pH 2 Stability 24 h % AN | 90
CC(=O)O[C@H]1[C@@H](OC(C)=O)[C@](C#N)(c2ccc3c(N)ncnn23)O[C@@H]1COC(=O)OC(C)C | pH 2 Stability 24 h % AN | 90

Indicate its recorded pH 2 Stability 24 h % AN; the compound in question is "CC(C)(OC(=O)OC[C@H]1O[C@@](C#N)(c2ccc3c(N)ncnn23)[C@H](O)[C@@H]1O)C(F)(F)F"
95

Indicate its recorded pH 2 Stability 24 h % AN; the compound in question is "CC(C)OC(=O)OC[C@H]1O[C@@](C#N)(c2ccc3c(N)ncnn23)[C@@H]2OC(=O)O[C@@H]21"
2

Indicate its recorded pH 2 Stability 24 h % AN; the compound in question is CC12CCC(C1)C(C)(C)C2OC(=O)OC[C@H]1O[C@@](C#N)(c2ccc3c(N)ncnn23)[C@H](O)[C@@H]1O (mixture of isomers)
100

###

Tested on: Respiratory syncytial virus recombinant with luciferase (RSV-Luc5) in HEp-2 cells
Experimental details: microbe, parasite or virus in culture
Type: cell-based
Study conditions: human respiratory syncytial virus, HEp-2, read-out: EC50 RSVFluc-Hep2 384 V2
Measurement label: pEC50
Note: pEC50 values are expressed as the negative base-10 logarithm of concentration in M.

Worked examples follow.
Compound smiles | Observed result
N#C[C@@]1(c2ccc3c(N)ncnn23)O[C@H](COC(=O)OCC2CC(F)(F)C2)[C@@H](O)[C@H]1O | 6.64
N#C[C@@]1(c2ccc3c(N)ncnn23)O[C@H](COC(=O)OC23CC4CC(CC(C4)C2)C3)[C@@H](O)[C@H]1O | 4.93

Now consider the entry below.
Indicate its recorded pEC50; the molecule in question is "N#CCC1(COC(=O)OC[C@H]2O[C@@](C#N)(c3ccc4c(N)ncnn34)[C@H](O)[C@@H]2O)CC1"
5.66

###

Test system: Caco-2 cells (clone C2BBe1)
Experimental details: CACO-2 permeability
Format: in vitro ADME
Parameters: unit not given here
Study conditions: basolateral to apical
Strictly below 4 in DM Caco2 B to A: condition met. Otherwise: condition not met.

Some solved entries appear below for comparison.
Compound | Group label
CC(C)OC(=O)Nc1ncnn2c([C@]3(C#N)O[C@H](COC(=O)OC(C)C)[C@@H](OC(=O)OC(C)C)[C@H]3O)ccc12 | condition not met
N#C[C@@]1(c2ccc3c(N)ncnn23)O[C@H](COC(=O)OCc2ncccn2)[C@@H](O)[C@H]1O | condition met

Does "N#C[C@@]1(c2ccc3c(N)ncnn23)O[C@H](COC(=O)OC23CC(C(F)(F)F)(C2)C3)[C@@H](O)[C@H]1O" have DM Caco2 B to A strictly under 4?
condition not met

Does "CC(=O)O[C@H]1[C@@H](OC(C)=O)[C@](C#N)(c2ccc3c(N)ncnn23)O[C@@H]1COC(=O)OC(C)(C)c1ccncc1" have DM Caco2 B to A strictly under 4?
condition not met

Does "CC(C)OC(=O)OC[C@H]1O[C@@](C#N)(c2ccc3c(N)ncnn23)[C@H](O)[C@@H]1O" have DM Caco2 B to A strictly under 4?
condition not met

###

Study conditions: male, Sprague-Dawley, rat, in vivo, po
Measurement label: Cmax (nM)
Give your result in nM as a bare value.

Indicate its recorded Cmax; the molecule in question is CC(C)C(=O)OC[C@H]1O[C@@](C#N)(c2ccc3c(N)ncnn23)[C@H](O)[C@@H]1O [Ester Reference Compound]
2100

###

Experimental details: Stability in pH2 buffered solution
Format: physicochemical
Study conditions: pH2 phosphate buffer, 40° C., 6 hr
Measurement label: Stability at pH2, 6 hr (% AN)
Give your result in % AN as a bare value.

Indicate its recorded Stability at pH2, 6 hr; the compound in question is CCOC(=O)OC[C@H]1O[C@@](C#N)(c2ccc3c(N)ncnn23)[C@H](OC(C)=O)[C@@H]1OC(C)=O [Compound 129]
96.9

Indicate its recorded Stability at pH2, 6 hr; the compound in question is CC(C)OC(=O)OC[C@H]1O[C@@](C#N)(c2ccc3c(N)ncnn23)[C@H](O)[C@@H]1O [Compound 4]
98.5

Indicate its recorded Stability at pH2, 6 hr; the compound in question is CC(C)OC(=O)OC[C@H]1O[C@@](C#N)(c2ccc3c(N)ncnn23)[C@H](OC(=O)C(C)C)[C@@H]1OC(=O)C(C)C [Compound 59]
100.0

Indicate its recorded Stability at pH2, 6 hr; the compound in question is COC(=O)OC[C@H]1O[C@@](C#N)(c2ccc3c(N)ncnn23)[C@H](OC(C)=O)[C@@H]1OC(C)=O [Compound 128]
96.7
